Data credit: ChEMBL document CHEMBL1145806

# System: Escherichia coli
# test_name: Selectivity of inhibitory activity of Methionine aminopeptidase 1 from Escherichia coli to Methionine aminopeptidase 1 from Saccharomyces cerevisiae
Below, each entry is listed with its recorded Ratio.
Form field (numeric): enter value without unit.

Guide cases for Ratio, answers given:
O=CNc1cccnc1C(=O)Nc1nccs1
1
CC(C)COC(=O)Nc1cccnc1C(=O)Nc1nccs1
0.036
COc1ccccc1C(=O)Oc1cccnc1C(=O)Nc1nccs1
3.1

Recorded Ratio of CC(C)=CC(=O)Nc1cccnc1C(=O)Nc1nccs1 , please.
0.29

# Ratio lookup, item C/C=C(\C)C(=O)Nc1cccnc1C(=O)Nc1nccs1
0.026

Look at this compound and give its reported Ratio. O=C(Oc1cccnc1C(=O)Nc1nccs1)c1ccccc1I
1.5

GET /values?readout=Ratio&item= C=C(C)CC(=O)Nc1cccnc1C(=O)Nc1nccs1
0.032

State the recorded Ratio for this entry: CC(C)(C)OC(=O)Nc1cccnc1C(=O)Nc1nccs1
0.054

What Ratio value was documented for this compound, O=C(Nc1nccs1)c1ncccc1OC(=O)C1CCCCC1 ?
7.5

* * *

# Lookup of reported pIC50 keyed by entry
# target_system: Methionine aminopeptidase (Escherichia coli K-12, UniProt P0AE18)
# Sequence (P0AE18 whole entry): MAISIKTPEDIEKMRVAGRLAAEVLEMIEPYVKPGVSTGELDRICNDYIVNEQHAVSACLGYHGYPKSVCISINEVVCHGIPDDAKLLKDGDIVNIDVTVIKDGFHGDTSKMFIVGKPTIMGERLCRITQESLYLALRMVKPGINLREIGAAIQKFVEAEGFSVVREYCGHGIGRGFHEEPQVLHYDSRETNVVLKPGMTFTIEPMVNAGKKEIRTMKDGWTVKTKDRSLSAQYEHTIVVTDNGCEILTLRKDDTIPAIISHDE
Remember, pIC50 is on a log scale: it is -log10 of the molar concentration.

Worked set:
O=C(Nc1cccnc1C(=O)Nc1nccs1)c1cccc(F)c1
6.15
C/C=C(\C)C(=O)Nc1cccnc1C(=O)Nc1nccs1
6.55
O=C(Nc1nccs1)c1ncccc1O
5.73

Reported pIC50, molecule C=C(C)CC(=O)Nc1cccnc1C(=O)Nc1nccs1 : ____
6.82

Name the reported pIC50 value associated with the molecule C=CCC(=O)Nc1cccnc1C(=O)Nc1nccs1
6.89

Consider the molecule shown here: O=C(Cc1ccccc1)Nc1cccnc1C(=O)Nc1nccs1 What is its recorded pIC50?
6.40

Recorded pIC50 for C/C=C(\C)C(=O)Oc1cccnc1C(=O)Nc1nccs1 , please?
5.36

Suppose we examine the molecule O=C(Cc1ccccc1)Oc1cccnc1C(=O)Nc1nccs1 ; what pIC50 value has been reported?
6.27

Give its pIC50 value. Item: CC(C)=CCCC(=O)Nc1cccnc1C(=O)Nc1nccs1
6.21

What pIC50 value was documented for this molecule, CCC(=O)Nc1cccnc1C(=O)Nc1nccs1 ?
6.59

* * *

Form field: pIC50 (one value per entry).
# target_system: Methionine aminopeptidase (Escherichia coli K-12, UniProt P0AE18)
Conceptually, pIC50 converts a concentration in mol/L into minus its log10.

Reference set (6 entries):
CC(C)(C)C(=O)Nc1cccnc1C(=O)Nc1nccs1
6.27
CC(C)(C)C(=O)Oc1cccnc1C(=O)Nc1nccs1
6.17
COc1cccc(C(=O)Oc2cccnc2C(=O)Nc2nccs2)c1[N+](=O)[O-]
5.77
CCCCCC(=O)Nc1cccnc1C(=O)Nc1nccs1
6.42
O=C(Nc1cccnc1C(=O)Nc1nccs1)c1ccccc1
6.05
CCC(=O)Oc1cccnc1C(=O)Nc1nccs1
5.27

# value lookup — system Methionine aminopeptidase (Escherichia coli K-12, UniProt P0AE18), readout pIC50, item O=C(Nc1nccs1)c1ncccc1OC(=O)C1CCCCC1
5.62

Record O=C(Oc1cccnc1C(=O)Nc1nccs1)c1ccccc1F : what is its pIC50 with Methionine aminopeptidase (Escherichia coli K-12, UniProt P0AE18)?
6.08

Which pIC50 is reported with Methionine aminopeptidase (Escherichia coli K-12, UniProt P0AE18) for this entry: CCCCCC(=O)Oc1cccnc1C(=O)Nc1nccs1 ?
5.99
